# subject.of.test: CK2A1 (CK2α/β) (Homo sapiens)
# Sequence (P68400 whole entry, species assumed): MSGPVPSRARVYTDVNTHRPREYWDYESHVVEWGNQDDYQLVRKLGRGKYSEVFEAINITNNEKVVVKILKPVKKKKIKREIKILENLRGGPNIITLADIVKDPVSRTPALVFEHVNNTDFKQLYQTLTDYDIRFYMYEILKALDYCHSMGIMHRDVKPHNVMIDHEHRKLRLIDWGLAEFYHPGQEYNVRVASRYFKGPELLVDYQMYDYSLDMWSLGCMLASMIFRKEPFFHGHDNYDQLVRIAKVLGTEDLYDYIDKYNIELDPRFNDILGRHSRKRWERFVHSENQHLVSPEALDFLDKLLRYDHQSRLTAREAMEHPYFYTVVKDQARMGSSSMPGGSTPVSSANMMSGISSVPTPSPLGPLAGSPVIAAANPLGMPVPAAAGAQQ
# Sequence (P67870 whole entry partner, species assumed): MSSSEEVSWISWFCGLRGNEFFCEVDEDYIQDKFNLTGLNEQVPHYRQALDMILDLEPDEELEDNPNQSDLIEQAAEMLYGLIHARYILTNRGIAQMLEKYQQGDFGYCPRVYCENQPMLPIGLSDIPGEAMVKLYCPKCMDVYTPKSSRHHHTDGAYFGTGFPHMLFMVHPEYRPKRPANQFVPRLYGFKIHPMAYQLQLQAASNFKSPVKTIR
# protocol: CK2 kinase assay, CK2A1 (CK2α/β)
# Format: biochemical
# assay.conditions: Table A; read-out: CK2A1 (CK2α/β) (IC50)
test.readout: IC50 (nM)
// return numeric value only (unit: nM, not printed)

Solved cases below.
molecule | data.value
CC1(O)CN([C@@H]2CCCN(c3cc(C#N)cc(Nc4nc(NC5CC5)c5ncc(C#N)n5n4)c3Cl)C2)C1 | 0.96
N#Cc1cc(Nc2nc(NC3CC3)c3ncc(C#N)n3n2)c(Cl)c(N2CCN3CCOC[C@@H]3C2)c1 | 1.31
N#Cc1cc(Nc2nc(NC3CC3)c3ncc(C#N)n3n2)c(Cl)c(N2CCC(N3CC(F)(F)C3)CC2)c1 | 1.17

Let us examine a further case.
The molecule listed as CC(C)(CO)NCC(O)c1cc(C#N)cc(Nc2nc(NC3CC3)c3ncc(C#N)n3n2)c1Cl (stereo not shown) has a reported IC50 of 1.1
